- subject of test: KCNH6 potassium channel (Homo sapiens, UniProt Q9H252)
- Construct: human KCNH6 (WT cDNA) transfected in HEK293T cells; FLAG-tagged for pull-down
- Sequence (Q9H252 whole entry): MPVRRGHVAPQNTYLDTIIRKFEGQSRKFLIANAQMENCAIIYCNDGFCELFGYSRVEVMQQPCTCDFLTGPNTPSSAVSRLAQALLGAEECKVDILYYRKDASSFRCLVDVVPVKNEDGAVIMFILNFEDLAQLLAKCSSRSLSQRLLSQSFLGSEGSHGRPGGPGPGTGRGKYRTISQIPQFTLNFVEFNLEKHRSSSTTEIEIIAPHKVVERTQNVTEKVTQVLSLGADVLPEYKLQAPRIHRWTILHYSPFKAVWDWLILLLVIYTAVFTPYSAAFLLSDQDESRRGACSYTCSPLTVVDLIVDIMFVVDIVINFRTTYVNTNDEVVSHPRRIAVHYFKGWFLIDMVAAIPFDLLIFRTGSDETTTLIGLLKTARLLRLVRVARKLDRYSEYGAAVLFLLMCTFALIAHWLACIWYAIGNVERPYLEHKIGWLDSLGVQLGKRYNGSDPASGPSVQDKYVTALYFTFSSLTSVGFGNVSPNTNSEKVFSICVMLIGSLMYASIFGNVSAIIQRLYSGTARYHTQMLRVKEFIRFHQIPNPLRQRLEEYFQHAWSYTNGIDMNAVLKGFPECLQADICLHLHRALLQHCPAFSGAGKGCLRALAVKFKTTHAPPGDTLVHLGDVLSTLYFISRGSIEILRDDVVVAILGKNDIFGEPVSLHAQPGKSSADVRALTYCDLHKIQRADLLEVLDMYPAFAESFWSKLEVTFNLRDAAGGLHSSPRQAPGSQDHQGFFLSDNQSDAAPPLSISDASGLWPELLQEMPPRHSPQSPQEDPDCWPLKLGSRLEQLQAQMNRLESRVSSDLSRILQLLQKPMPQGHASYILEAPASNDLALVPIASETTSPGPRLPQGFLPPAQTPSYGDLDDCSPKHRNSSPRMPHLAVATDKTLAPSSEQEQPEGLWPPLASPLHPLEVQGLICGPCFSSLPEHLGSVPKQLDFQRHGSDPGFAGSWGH
- test details: whole-cell patch clamp of KCNH6-transfected HEK293T cells; affinity-bead pull-down from cell extract competed by free BBR
experimental endpoint: IC50
The reply must contain the numeric value and, after it, the unit.

Check the records and state IC50 for COc1ccc2cc3[n+](cc2c1OC)CCc1cc2c(cc1-3)OCO2 [BBR, berberine] 1010 nM

The origin of these recorded values is paper PMC8460738.
